TEST_DETAILS: Solubility of the salts (saturated solution, filtering, HPLC determination of homoeriodictyol content)
Type: physicochemical
RECORDED_CONDITIONS: water containing 1.5 g/l citric acid, aqueous buffer, thermodynamic from solid; saturated solution, filtered, HPLC
Procedure: The solubility of the homoeriodictyol sodium salt and the salts produced in Example 1 and Example 2 is determined by the production of a saturated solution, filtering of this and then HPLC determination of the homoeriodictyol content.
Counter-ions that a name gives are not always drawn.
OUTCOME_MEASURE: solubility (µg/mL)

[
  {
    "MOLECULE": "COc1cc([C@@H]2CC(=O)c3c(O)cc(O)cc3O2)ccc1O [Homoeriodictyol sodium salt, reference compound]",
    "OUTCOME_MEASURE": "solubility",
    "MEASURED": 3800
  }
]
